System: MDA-MB-435 melanoma
Assay: NCI-60 one-dose screen, 48 h (100 = growth as untreated, 0 = no growth, -100 = all killed)
Details: 10 µM unless noted
This is part of a sample that, as a whole, favours compounds with a hit. Of some 83,000 tested, about 20% had one in any assay.
parameter.measured: growth (%)
Give the number; % is assumed, so skip it.

Example compounds with recorded growth:
compound	target	growth, %
Cc1cccc(/C=N/n2c(-c3ccc(Cl)cc3)nc3c(Br)cc(Br)cc3c2=O)c1	MDA-MB-435 melanoma	66
Oc1ccccc1-c1nnc(COc2ccc(Cl)cc2Cl)o1	MDA-MB-435 melanoma	63.9
OC(COCc1ccccc1)COCc1ccccc1	MDA-MB-435 melanoma	112
O=C(Nc1cccc(-n2ccc3c(NC(=O)c4ccccc4)nccc32)c1)c1ccc(Cl)c(Cl)c1	MDA-MB-435 melanoma	-78.1
COc1cnc2c(c1)C(=O)c1c-2n(CCCN2CCNCC2)c(=O)c2cc(Cl)ccc12	MDA-MB-435 melanoma	0.312

Query: For the compound shown here, C[C@@H]1CC2C3CCC4=CC(=O)C=C[C@]4(C)[C@@]3(Cl)[C@@H](O)C[C@]2(C)[C@@]1(OC(=O)c1ccco1)C(=O)CCl (stereo not given in full) , give the reported growth.
Result: 73.4

Query: Now this one: CC(C)(C)OC(=O)N1CCCN(CCNc2nccc(-c3c(-c4cccc(O)c4)nc4sccn34)n2)S1(=O)=O
Result: 54.1

Query: Now this one: CCOc1cc(/C=N\NC(=O)C[N+](C)(C)C)ccc1O
Result: 109

Query: Now this one: CC1=C(/C=C/C(C)=C/C=C(C(=O)O)\C(C)=C\C(=O)O)C(C)(C)CCC1
Result: 116

Query: Now this one: CCCNCCC(C)=O
Result: 94.7

----------
Entries and their growth values follow.
Test system: KM12 colon
Assay: NCI-60 one-dose screen, 48 h (100 = growth as untreated, 0 = no growth, -100 = all killed)
Details: 10 µM unless noted
This is part of a sample that, as a whole, favours compounds with a hit. Of some 83,000 tested, about 20% had one in any assay.
Give the number; % is assumed, so skip it.

compound	parameter.measured	readout.unit	numeric.value
CC(C)CCSc1nc(Nc2ccccc2)c(C#N)c(-c2ccc(F)cc2)n1	growth	%	84.8
Brc1ccsc1Br	growth	%	111
COc1ccc2nc3ccccc3c(NCc3ccc(C)cc3)c2c1	growth	%	37.3
Clc1ccc(Cl)c(N=Cc2ccc3c(c2)OCO3)c1	growth	%	106

Query: Find the measured growth: item CC(=O)CC(c1ccc([N+](=O)[O-])cc1)c1c(O)c2ccccc2oc1=O (stereo unspecified) , target or system KM12 colon.
Result: 98.5

Query: Now this one: Cc1cc(O)ccc1Sc1ccccc1[N+](=O)[O-]
Result: 91.1

Query: Now this one: NS(=O)(=O)c1ccc(CCn2c(SCC(=O)N/N=C/c3ccccc3O)nc3ccccc3c2=O)cc1
Result: 34

Query: Now this one: COc1ncnc2[nH]cc(CN3CCN(c4ccc(F)cc4)CC3)c12
Result: 109

----------
Test system: NCI/ADR-RES ovarian
Experiment: NCI-60 one-dose screen, 48 h
Details: 10 µM unless noted
Compounds without any hit were thinned out: in the full panel of roughly 83,000, 20% have a hit. Calls of active or inactive are those of the source. The calls were made as follows: active = growth percent below 10; inactive = the rest.
Tick one outcome: YES for active, NO for inactive

compound	answer.label
CS(=O)(=O)c1ccc(C(=O)N/N=C/c2cccc3ccccc23)cc1	NO
O=C(Nc1ccncc1)C(=O)c1cn(S(=O)(=O)c2cccc(Cl)c2F)c2ccccc12	NO
Cc1cc2nc(CN)[nH]c2cc1C	NO
COc1ccc2c(c1)OC1=C(C(=O)OC1)C2c1cc(OC)c2c(c1)OCCO2 (stereo unspecified)	NO
O/N=C1\c2ccccc2-c2ccc(Br)cc21	NO
COc1cc2ccc(C(C)=O)cc2cc1OC	NO
CC(C)(C)c1cc(C[P+](c2ccccc2)(c2ccccc2)c2ccccc2)cc(C(C)(C)C)c1O	NO
O=S(=O)(Cc1ccc(Cl)cc1Cl)c1ccc(Cl)cc1	YES

Query: Called result for CCN(CCC#N)c1ccccc1
Result: NO

Query: Now this one: NS(=O)(=O)c1ccc(CCn2c(SCC(=O)N/N=C/c3cc4ccccc4[nH]3)nc3ccccc3c2=O)cc1
Result: NO

Query: Now this one: Cc1cc(N)cc(C)c1-c1c(Br)cc(N)cc1Br
Result: YES

Data credit: PubChem BioAssay (NCI)
